Measured values drawn from patent US20240360228A1 for this set.

Recorded % Blocking values for a group of binders are listed next.
Molecular target: T1, human CCR8 (human, UniProt P51685 1-355)
T1 construct: Native CCR8 on human PBMC (CCR8+ CD3+ or CCR8+ CD4+ lymphocytes); also called chemokine (C-C motif) receptor 8
T1 sequence (P51685 whole entry): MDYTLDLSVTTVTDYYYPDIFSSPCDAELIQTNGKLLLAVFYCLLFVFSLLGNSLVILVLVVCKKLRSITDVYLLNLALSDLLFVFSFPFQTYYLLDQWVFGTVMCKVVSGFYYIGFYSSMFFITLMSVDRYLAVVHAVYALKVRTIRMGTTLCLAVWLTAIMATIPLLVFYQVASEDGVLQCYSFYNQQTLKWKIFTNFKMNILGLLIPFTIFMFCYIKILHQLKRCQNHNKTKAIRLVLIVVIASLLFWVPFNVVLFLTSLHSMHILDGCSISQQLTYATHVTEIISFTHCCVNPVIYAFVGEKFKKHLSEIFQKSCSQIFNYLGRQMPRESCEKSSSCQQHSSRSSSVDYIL
Assay: flow blocking, PBMC CCR8+CD3+; competitor PE-AB8

binder	% Blocking, %
AB10 (antibody, V domains shown, Hybridoma monoclonal; also called antibody 10; clone 10) VH: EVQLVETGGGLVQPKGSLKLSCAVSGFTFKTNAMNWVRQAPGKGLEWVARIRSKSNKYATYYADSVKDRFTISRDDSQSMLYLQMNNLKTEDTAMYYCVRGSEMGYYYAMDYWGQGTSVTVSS VL: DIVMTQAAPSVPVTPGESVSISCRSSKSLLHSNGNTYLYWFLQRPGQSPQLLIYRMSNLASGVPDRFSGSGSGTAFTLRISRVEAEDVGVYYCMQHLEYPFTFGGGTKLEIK	51.6
AB7 (antibody, V domains shown, Hybridoma monoclonal; also called antibody 7; clone 7) VH: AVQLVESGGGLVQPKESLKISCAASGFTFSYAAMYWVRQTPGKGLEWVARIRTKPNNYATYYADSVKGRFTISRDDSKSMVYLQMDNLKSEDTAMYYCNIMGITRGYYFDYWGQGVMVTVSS VL: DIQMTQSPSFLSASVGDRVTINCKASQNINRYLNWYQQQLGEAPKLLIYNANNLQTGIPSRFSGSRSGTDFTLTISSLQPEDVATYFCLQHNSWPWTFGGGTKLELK	26.6
AB8 (antibody, V domains shown, Hybridoma monoclonal; also called antibody 8; clone 8) VH: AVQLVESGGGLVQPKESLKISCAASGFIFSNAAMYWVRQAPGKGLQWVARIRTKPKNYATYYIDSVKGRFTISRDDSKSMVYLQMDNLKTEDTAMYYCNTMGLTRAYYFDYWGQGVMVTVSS VL: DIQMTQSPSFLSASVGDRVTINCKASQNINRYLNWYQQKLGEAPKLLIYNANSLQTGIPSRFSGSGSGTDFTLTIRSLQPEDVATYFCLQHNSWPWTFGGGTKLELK	26.9
